target-or-system: DAT (Rattus norvegicus, UniProt P23977)
Construct: 100 μl of tissue preparation (1.5 mg of brain striatum membranes per well); tissue Bioreclamation IVT (Hicksville, N.Y.); host or cells: male Sprague-Dawley rat brain striatum membranes
Sequence (P23977 whole entry): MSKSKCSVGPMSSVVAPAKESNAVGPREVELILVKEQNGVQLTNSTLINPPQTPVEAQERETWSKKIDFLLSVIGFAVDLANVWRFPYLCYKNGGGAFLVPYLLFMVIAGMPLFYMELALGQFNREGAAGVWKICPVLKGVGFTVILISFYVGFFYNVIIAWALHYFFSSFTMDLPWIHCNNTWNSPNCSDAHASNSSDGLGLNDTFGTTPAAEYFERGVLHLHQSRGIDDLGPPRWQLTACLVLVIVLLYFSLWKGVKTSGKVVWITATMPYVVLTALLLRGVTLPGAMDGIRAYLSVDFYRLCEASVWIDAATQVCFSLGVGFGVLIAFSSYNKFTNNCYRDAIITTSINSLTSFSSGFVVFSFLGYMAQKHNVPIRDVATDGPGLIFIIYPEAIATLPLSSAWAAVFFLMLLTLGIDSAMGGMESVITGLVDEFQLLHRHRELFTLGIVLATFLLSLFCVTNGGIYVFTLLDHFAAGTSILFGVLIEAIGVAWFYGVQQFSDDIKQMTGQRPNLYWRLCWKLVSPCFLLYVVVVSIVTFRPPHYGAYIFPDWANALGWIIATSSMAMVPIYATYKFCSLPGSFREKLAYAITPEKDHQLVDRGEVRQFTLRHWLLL
assay-protocol: DAT radioligand binding in rat striatum ([3H]-WIN35,428 competition)
settings: rat striatum membranes, [3H]-WIN35,428, mean ± SEM; read-out: DAT (rat striatum) Ki ± SEM
readout-type: Ki (nM)
# number only, unit nM dropped from output

// below: answered molecules
Tell me Ki of OC(CN1CCC2(CCN(CCSC(c3ccc(F)cc3)c3ccc(F)cc3)CC2)C1)c1ccccc1 (stereo not drawn) [RDS04-002] when tested on DAT (Rattus norvegicus, UniProt P23977).
125

Tell me Ki of Cl.Cl.[O-][S+](CCNC1CCN(Cc2ccc(F)cc2)CC1)C(c1ccc(F)cc1)c1ccc(F)cc1 (stereo not drawn) [JBG02-054] when tested on DAT (Rattus norvegicus, UniProt P23977).
50.6

New cases:
Tell me Ki of [O-][S+](CCNC1CCN(CC(O)Cc2ccccc2)CC1)C(c1ccc(F)cc1)c1ccc(F)cc1 (stereo not drawn) [JBG02-057] when tested on DAT (Rattus norvegicus, UniProt P23977).
91.8

====

target-or-system: σ1R (Cavia porcellus)
Sequence (Q60492 whole entry): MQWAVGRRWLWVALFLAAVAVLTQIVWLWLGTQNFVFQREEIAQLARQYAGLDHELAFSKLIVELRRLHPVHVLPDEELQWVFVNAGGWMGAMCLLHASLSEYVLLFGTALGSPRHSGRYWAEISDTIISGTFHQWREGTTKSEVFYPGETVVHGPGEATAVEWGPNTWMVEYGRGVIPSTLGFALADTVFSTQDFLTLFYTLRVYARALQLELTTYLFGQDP
The compounds listed here are annotated with their pKd.
The value called pKd is obtained by taking minus log10 of the concentration in mol/L.

Provide one value: measured pKd of Cl.Cl.OC(Cc1ccccc1)CN(CC(O)Cc1ccccc1)C1CCN(CCSC(c2ccc(F)cc2)c2ccc(F)cc2)CC1 (centres unmarked)
6.49

Provide one value: measured pKd of [O-][S+](CCNC1CCN(CC(O)Cc2ccccc2)CC1)C(c1ccc(F)cc1)c1ccc(F)cc1 (centres unmarked)
6.46

Provide one value: measured pKd of Cl.O=C(c1ccc(F)cc1)N1CCC(NCC[S+]([O-])C(c2ccc(F)cc2)c2ccc(F)cc2)CC1 (centres unmarked)
5.88

Provide one value: measured pKd of Cl.O=C(c1ccccc1)N1CCC(NCCSC(c2ccc(F)cc2)c2ccc(F)cc2)CC1
8.69

Provide one value: measured pKd of Fc1ccc(C(SCCNC2CCN(Cc3ccccc3)CC2)c2ccc(F)cc2)cc1
8.40

====

target-or-system: SERT (Rattus norvegicus, UniProt P31652)
Construct: 100 μl of tissue preparation (2 mg of brain stem membranes per well); tissue Bioreclamation IVT (Hicksville, N.Y.); host or cells: male Sprague-Dawley rat brain stem membranes
Sequence (P31652 whole entry): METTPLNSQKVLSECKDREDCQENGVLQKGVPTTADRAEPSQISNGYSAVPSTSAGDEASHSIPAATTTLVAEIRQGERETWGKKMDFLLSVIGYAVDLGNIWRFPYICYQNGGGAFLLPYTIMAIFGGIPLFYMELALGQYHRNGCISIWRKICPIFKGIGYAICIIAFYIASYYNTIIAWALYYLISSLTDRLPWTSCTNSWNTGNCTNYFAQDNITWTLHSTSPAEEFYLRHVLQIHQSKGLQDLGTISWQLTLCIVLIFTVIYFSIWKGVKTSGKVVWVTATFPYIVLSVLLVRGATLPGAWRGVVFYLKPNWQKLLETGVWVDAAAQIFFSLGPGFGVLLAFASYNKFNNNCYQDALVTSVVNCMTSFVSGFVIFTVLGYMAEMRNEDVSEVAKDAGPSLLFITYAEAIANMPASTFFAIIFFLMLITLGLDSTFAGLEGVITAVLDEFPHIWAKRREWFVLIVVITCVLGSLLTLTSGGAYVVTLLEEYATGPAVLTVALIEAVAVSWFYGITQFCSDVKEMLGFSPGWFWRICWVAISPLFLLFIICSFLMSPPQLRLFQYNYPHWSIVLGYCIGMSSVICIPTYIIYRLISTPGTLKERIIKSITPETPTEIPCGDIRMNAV
assay-protocol: SERT radioligand binding in rat midbrain ([3H]-Citalopram competition)
settings: rat midbrain/brain stem membranes, [3H]-Citalopram, mean ± SEM; read-out: SERT (rat mid-brain-stem) Ki ± SEM
The compounds listed here are annotated with their pKi.
The value called pKi is obtained by taking minus log10 of the concentration in mol/L.

// below: answered compounds
Tell me pKi of CC(C)(C)C(=O)N1CCC(NCC[S+]([O-])C(c2ccc(F)cc2)c2ccc(F)cc2)CC1 (stereo not shown) when tested on SERT (Rattus norvegicus, UniProt P31652).
4.49

Tell me pKi of O=C(c1ccc(F)cc1)N1CCC(NCCSC(c2ccc(F)cc2)c2ccc(F)cc2)CC1 when tested on SERT (Rattus norvegicus, UniProt P31652).
6.31

Tell me pKi of Cl.Cl.Fc1ccc(CNC2CCN(CCSC(c3ccc(F)cc3)c3ccc(F)cc3)CC2)cc1 when tested on SERT (Rattus norvegicus, UniProt P31652).
6.57

Tell me pKi of Cl.Cl.Fc1ccc(C(SCCNC2CCN(Cc3ccc(C(F)(F)F)cc3)CC2)c2ccc(F)cc2)cc1 when tested on SERT (Rattus norvegicus, UniProt P31652).
5.79

Tell me pKi of CC(O)CN1CCC2(CCN(CC[S+]([O-])C(c3ccc(F)cc3)c3ccc(F)cc3)CC2)C1 (stereo not shown) when tested on SERT (Rattus norvegicus, UniProt P31652).
6.21

Tell me pKi of CC(C)(C)C(=O)N1CCC(NCCSC(c2ccc(F)cc2)c2ccc(F)cc2)CC1.Cl when tested on SERT (Rattus norvegicus, UniProt P31652).
6.00

New cases:
Tell me pKi of Fc1ccc(C(SCCN2CCC(NCc3ccccc3)CC2)c2ccc(F)cc2)cc1 when tested on SERT (Rattus norvegicus, UniProt P31652).
6.48

Tell me pKi of C[C@@H]1CN(CCSC(c2ccc(F)cc2)c2ccc(F)cc2)C[C@H](C)N1CC(O)Cc1ccccc1 (stereo partly shown) when tested on SERT (Rattus norvegicus, UniProt P31652).
5.80

Tell me pKi of Cl.Cl.OC(CNC1CCN(CCSC(c2ccc(F)cc2)c2ccc(F)cc2)CC1)Cc1ccccc1 (stereo not shown) when tested on SERT (Rattus norvegicus, UniProt P31652).
7.18

Tell me pKi of Fc1ccc(C(SCCNC2CCN(Cc3ccccc3)CC2)c2ccc(F)cc2)cc1 when tested on SERT (Rattus norvegicus, UniProt P31652).
6.39

Tell me pKi of CC(C)(C)CN1CCC(NCC[S+]([O-])C(c2ccc(F)cc2)c2ccc(F)cc2)CC1 (stereo not shown) when tested on SERT (Rattus norvegicus, UniProt P31652).
5.16

Tell me pKi of Cl.Cl.Fc1ccc(C(SCCNC2CCN(Cc3ccc(Cl)cc3)CC2)c2ccc(F)cc2)cc1 when tested on SERT (Rattus norvegicus, UniProt P31652).
6.45

Tell me pKi of O=C(c1cc2ccccc2o1)N1CCC(NCCSC(c2ccc(F)cc2)c2ccc(F)cc2)CC1 when tested on SERT (Rattus norvegicus, UniProt P31652).
7.02

Tell me pKi of Cl.Cl.O.O=C(c1cc2ccccc2[nH]1)N1CCC(NCCSC(c2ccc(F)cc2)c2ccc(F)cc2)CC1 when tested on SERT (Rattus norvegicus, UniProt P31652).
6.03

Tell me pKi of Cl.Cl.Fc1ccc(C(SCCN2CCC(NCc3ccc(Cl)cc3)CC2)c2ccc(F)cc2)cc1 when tested on SERT (Rattus norvegicus, UniProt P31652).
6.40

Tell me pKi of CC(C)(C)CN1CCC(NCCSC(c2ccc(F)cc2)c2ccc(F)cc2)CC1 when tested on SERT (Rattus norvegicus, UniProt P31652).
6.02

Tell me pKi of [O-][S+](CCNC1CCN(CC(O)Cc2ccccc2)CC1)C(c1ccc(F)cc1)c1ccc(F)cc1 (stereo not shown) when tested on SERT (Rattus norvegicus, UniProt P31652).
6.23

Tell me pKi of CC(O)CN1[C@H](C)CN(CC[S+]([O-])C(c2ccc(F)cc2)c2ccc(F)cc2)C[C@@H]1C (stereo partly shown) when tested on SERT (Rattus norvegicus, UniProt P31652).
4.72

Tell me pKi of Cl.O=C(c1ccc(F)cc1)N1CCC(NCC[S+]([O-])C(c2ccc(F)cc2)c2ccc(F)cc2)CC1 (stereo not shown) when tested on SERT (Rattus norvegicus, UniProt P31652).
5.34

Tell me pKi of O=C(C1CC1)N1CCC(NCCSC(c2ccc(F)cc2)c2ccc(F)cc2)CC1 when tested on SERT (Rattus norvegicus, UniProt P31652).
6.00

Tell me pKi of Cl.Cl.Fc1ccc(CN2CCC(NCCSC(c3ccc(F)cc3)c3ccc(F)cc3)CC2)cc1 when tested on SERT (Rattus norvegicus, UniProt P31652).
6.56

Tell me pKi of Fc1ccc(C(SCCNC2CCN(CC3CC3)CC2)c2ccc(F)cc2)cc1 when tested on SERT (Rattus norvegicus, UniProt P31652).
5.80

Tell me pKi of C[C@@H]1CN(CC[S+]([O-])C(c2ccc(F)cc2)c2ccc(F)cc2)C[C@H](C)N1CC(O)Cc1ccccc1 (stereo partly shown) when tested on SERT (Rattus norvegicus, UniProt P31652).
5.59

Tell me pKi of Cl.O=C(c1ccccc1)N1CCC(NCC[S+]([O-])C(c2ccc(F)cc2)c2ccc(F)cc2)CC1 (stereo not shown) when tested on SERT (Rattus norvegicus, UniProt P31652).
5.11

Tell me pKi of Cl.Cl.OC(Cc1ccccc1)CN1CCC(NCCSC(c2ccc(F)cc2)c2ccc(F)cc2)CC1 (stereo not shown) when tested on SERT (Rattus norvegicus, UniProt P31652).
6.89

Tell me pKi of OC(CN1CCC2(CCN(CCSC(c3ccc(F)cc3)c3ccc(F)cc3)CC2)C1)c1ccccc1 (stereo not shown) when tested on SERT (Rattus norvegicus, UniProt P31652).
6.91

Tell me pKi of Cl.Cl.[O-][S+](CCNC1CCN(Cc2ccc(F)cc2)CC1)C(c1ccc(F)cc1)c1ccc(F)cc1 (stereo not shown) when tested on SERT (Rattus norvegicus, UniProt P31652).
6.43

====

target-or-system: DAT (Rattus norvegicus, UniProt P23977)
Construct: 100 μl of tissue preparation (1.5 mg of brain striatum membranes per well); tissue Bioreclamation IVT (Hicksville, N.Y.); host or cells: male Sprague-Dawley rat brain striatum membranes
assay-protocol: DAT radioligand binding in rat striatum ([3H]-WIN35,428 competition)
settings: ratio of SERT Ki to DAT Ki
The compounds listed here are annotated with their SERT/DAT.
# output: bare number, no unit

Tell me SERT/DAT of Fc1ccc(C(SCCNC2CCN(CC3CC3)CC2)c2ccc(F)cc2)cc1 [JBG02-080] when tested on DAT (Rattus norvegicus, UniProt P23977).
3.93

Tell me SERT/DAT of Cl.O=C(c1ccccc1)N1CCC(NCC[S+]([O-])C(c2ccc(F)cc2)c2ccc(F)cc2)CC1 (centres unmarked) [JBG02-055] when tested on DAT (Rattus norvegicus, UniProt P23977).
97.72

Tell me SERT/DAT of Cl.Cl.O.O=C(c1cc2ccccc2[nH]1)N1CCC(NCCSC(c2ccc(F)cc2)c2ccc(F)cc2)CC1 [JBG02-029] when tested on DAT (Rattus norvegicus, UniProt P23977).
5.21

New cases:
Tell me SERT/DAT of [O-][S+](CCNC1CCN(CC(O)Cc2ccccc2)CC1)C(c1ccc(F)cc1)c1ccc(F)cc1 (centres unmarked) [JBG02-057] when tested on DAT (Rattus norvegicus, UniProt P23977).
6.48

Tell me SERT/DAT of OC(CN1CCC2(CCN(CCSC(c3ccc(F)cc3)c3ccc(F)cc3)CC2)C1)c1ccccc1 (centres unmarked) [RDS04-002] when tested on DAT (Rattus norvegicus, UniProt P23977).
0.99

Tell me SERT/DAT of CC(C)(C)C(=O)N1CCC(NCC[S+]([O-])C(c2ccc(F)cc2)c2ccc(F)cc2)CC1 (centres unmarked) [JBG02-072] when tested on DAT (Rattus norvegicus, UniProt P23977).
3.14

Tell me SERT/DAT of CC(O)CN1CCC2(CCN(CC[S+]([O-])C(c3ccc(F)cc3)c3ccc(F)cc3)CC2)C1 (centres unmarked) [RDS04-014] when tested on DAT (Rattus norvegicus, UniProt P23977).
1.37

Tell me SERT/DAT of CC(O)CN1[C@H](C)CN(CCSC(c2ccc(F)cc2)c2ccc(F)cc2)C[C@@H]1C (some centres unmarked) [RDS03-094] when tested on DAT (Rattus norvegicus, UniProt P23977).
629.79
